- PROTOCOL NOTES: Ocular pharmacokinetics of formulations, Example 20-4
- Type: in vivo, Dutch Belted rabbits
- TEST SETTINGS: Dutch Belted, rabbit, cornea, topical, 4 mg/mL (30 μL per eye, bilateral), Group 4: 4 mg/mL FB suspension, PSD 30 μm/XL, HPMC 0.08%, glycerol 2.5%, HEC 0.2%, VitK3 1 μM, pH ≈7.5, QD; Day 5, 1 hr post dose; read-out: Cornea concentration
PROPERTY MEASURED: concentration at 1 h (µM)
Number in µM, nothing else.

concentration at 1 h recorded for this molecule, NC(=O)c1c(OCc2c(F)cc(Br)cc2F)nsc1NC(=O)NCCCCN1CCCC1 [Formula II] , is 21.3
